Test: self-splicing fitness, log relative to wild type (ln ratio); higher = more splicing; Tetrahymena group I intron in knt gene, E. coli kanamycin selection, DiMSum; sequences stand for … in CUCUCU…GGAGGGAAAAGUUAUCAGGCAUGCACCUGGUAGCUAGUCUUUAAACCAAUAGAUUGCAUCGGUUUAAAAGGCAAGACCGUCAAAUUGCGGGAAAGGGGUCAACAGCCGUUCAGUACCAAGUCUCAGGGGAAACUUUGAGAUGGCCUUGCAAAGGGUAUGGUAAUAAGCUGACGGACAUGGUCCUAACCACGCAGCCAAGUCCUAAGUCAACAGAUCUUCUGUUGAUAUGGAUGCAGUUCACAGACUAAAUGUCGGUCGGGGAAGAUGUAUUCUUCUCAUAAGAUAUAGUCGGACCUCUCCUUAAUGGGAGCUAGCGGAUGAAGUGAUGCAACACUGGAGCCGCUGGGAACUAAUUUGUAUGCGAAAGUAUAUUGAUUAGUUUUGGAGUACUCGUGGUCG;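 also: selection with 25 µg/mL kanamycin versus none on LB agar overnight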
Settings: 30 °C
Here the recorded self-splicing fitness (ln) is given for each entry.
# answer = number (no unit)

record_sequence=CAACAGCAAUAUUACGAUGC value_reported=-3.08

Query GUAAAGCAAUAUUACGGGUA yields self-splicing fitness (ln) of -1.02

The recorded self-splicing fitness (ln) for entry UGACAGCAAUAUUACGUAAA equals -1.01

* * *

Listed here are sequences together with their documented self-splicing fitness (ln).
Assay: self-splicing fitness, log relative to wild type (ln ratio); higher = more splicing; Tetrahymena group I intron in knt gene, E. coli kanamycin selection, DiMSum; sequences stand for … in CUCUCU…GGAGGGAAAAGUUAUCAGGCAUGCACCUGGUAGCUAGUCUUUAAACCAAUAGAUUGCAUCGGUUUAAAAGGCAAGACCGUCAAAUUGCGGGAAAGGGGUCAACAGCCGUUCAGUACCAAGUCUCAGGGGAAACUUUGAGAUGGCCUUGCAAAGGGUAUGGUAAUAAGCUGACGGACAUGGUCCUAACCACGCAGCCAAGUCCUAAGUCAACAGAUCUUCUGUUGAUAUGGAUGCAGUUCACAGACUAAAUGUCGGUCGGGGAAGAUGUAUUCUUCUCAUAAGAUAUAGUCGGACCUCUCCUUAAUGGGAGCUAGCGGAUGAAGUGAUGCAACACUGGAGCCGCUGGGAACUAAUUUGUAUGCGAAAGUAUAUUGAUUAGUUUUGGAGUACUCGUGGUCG
Conditions: 37 °C

Solved cases below.
record_sequence=CGCAAGCAAUAUUACGUGUU measurement_name="self-splicing fitness (ln)" value_reported=-2.9
record_sequence=AAAGAGCAAUAUUACGAUAG measurement_name="self-splicing fitness (ln)" value_reported=-2.9
record_sequence=CUCUAGCAAUAUUACGUUGA measurement_name="self-splicing fitness (ln)" value_reported=-3.81
record_sequence=CCAGAGCAAUAUUACGCCAU measurement_name="self-splicing fitness (ln)" value_reported=-2.75

Please look at the following sequence next.
Per the record, CAGUAGCAAUAUUACGGUCA has self-splicing fitness (ln) of -1.71

* * *

Test: self-splicing fitness, log relative to wild type (ln ratio); higher = more splicing; Tetrahymena group I intron in knt gene, E. coli kanamycin selection, DiMSum; sequences stand for … in CUCUCU…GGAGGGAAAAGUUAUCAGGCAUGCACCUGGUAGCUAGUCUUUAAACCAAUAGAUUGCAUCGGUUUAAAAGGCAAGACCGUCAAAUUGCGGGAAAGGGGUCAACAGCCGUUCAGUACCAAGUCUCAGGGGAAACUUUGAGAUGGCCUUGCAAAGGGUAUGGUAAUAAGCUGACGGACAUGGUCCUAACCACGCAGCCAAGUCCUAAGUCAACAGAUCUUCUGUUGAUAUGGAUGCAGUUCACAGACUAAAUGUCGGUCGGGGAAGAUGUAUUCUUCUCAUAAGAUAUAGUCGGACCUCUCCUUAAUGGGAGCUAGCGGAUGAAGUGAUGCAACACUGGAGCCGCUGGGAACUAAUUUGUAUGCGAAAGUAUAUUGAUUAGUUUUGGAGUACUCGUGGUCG
Conditions: 30 °C
Classify on self-splicing fitness (ln) using low bracket: < -2; middle bracket: ≥ -2 and < -1; high bracket: ≥ -1

The examples below pair each entry with its known result.
record_sequence=GCCUAGCAAUAUUACGUCAG class="low bracket"
record_sequence=AACGAGCAAUAUUACGCACA class="low bracket"
record_sequence=GAUUAGCAAUAUUACGGCUU class="high bracket"
record_sequence=GUUUAGCAAUAUUACGUCUA class="middle bracket"

stdin: Bin? CGGUAGCAAUAUUACGACUU
stdout: high bracket

stdin: Band for the recorded self-splicing fitness (ln) of GUAAAGCAAUAUUACGCUAU ?
stdout: middle bracket

stdin: For UAUGAGCAAUAUUACGGUGC , which self-splicing fitness (ln) bin applies?
stdout: low bracket

stdin: Looking at GCUAAGCAAUAUUACGACGC , which class would you pick?
stdout: middle bracket

* * *

Experiment: self-splicing fitness, log relative to wild type (ln ratio); higher = more splicing; Tetrahymena group I intron in knt gene, E. coli kanamycin selection, DiMSum; sequences stand for … in CUCUCU…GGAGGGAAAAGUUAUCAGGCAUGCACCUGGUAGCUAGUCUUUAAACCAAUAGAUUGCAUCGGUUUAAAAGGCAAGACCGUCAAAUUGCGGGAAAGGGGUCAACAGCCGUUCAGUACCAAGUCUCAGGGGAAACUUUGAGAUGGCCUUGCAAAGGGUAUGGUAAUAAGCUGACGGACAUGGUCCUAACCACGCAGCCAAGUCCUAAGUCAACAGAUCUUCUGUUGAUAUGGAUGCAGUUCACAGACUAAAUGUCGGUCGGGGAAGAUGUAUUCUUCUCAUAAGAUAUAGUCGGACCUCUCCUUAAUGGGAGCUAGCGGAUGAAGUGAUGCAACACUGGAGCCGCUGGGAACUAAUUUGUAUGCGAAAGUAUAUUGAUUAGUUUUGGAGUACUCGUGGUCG
Details: 30 °C
measurement_name: self-splicing fitness (ln)
Form rule: numeric answer, no unit written next to it.

In the examples that follow, each entry is paired with its recorded self-splicing fitness (ln).
record_sequence=CUCCAGCAAUAUUACGAACC measurement_name="self-splicing fitness (ln)" value_reported=-3.49
record_sequence=AAAAAGCAAUAUUACGACUU measurement_name="self-splicing fitness (ln)" value_reported=0.0987
record_sequence=GACGAGCAAUAUUACGCACA measurement_name="self-splicing fitness (ln)" value_reported=-2.32
record_sequence=CAUCAGCAAUAUUACGUUAG measurement_name="self-splicing fitness (ln)" value_reported=-0.472

Lab book: self-splicing fitness (ln) of CGACAGCAAUAUUACGCGAA noted as -2.75

Reported self-splicing fitness (ln) for AGUCAGCAAUAUUACGGCCA was -0.485

Data point: UGCAAGCAAUAUUACGCACA ; self-splicing fitness (ln) = -1.38

Entry under test: AUAGAGCAAUAUUACGAAUG . Its self-splicing fitness (ln) was -3.68

self-splicing fitness (ln) measured on CGAUAGCAAUAUUACGGUGC = -3.57

Notebook: CGACAGCAAUAUUACGGUUG , self-splicing fitness (ln) read as -3.3

Value of self-splicing fitness (ln) reported for the sequence GUUAAGCAAUAUUACGAGGA is -1.5

The sequence listed as UUUGAGCAAUAUUACGGUUC has a reported self-splicing fitness (ln) of -3.67

* * *

Experiment: self-splicing fitness, log relative to wild type (ln ratio); higher = more splicing; Tetrahymena group I intron in knt gene, E. coli kanamycin selection, DiMSum; sequences stand for … in CUCUCU…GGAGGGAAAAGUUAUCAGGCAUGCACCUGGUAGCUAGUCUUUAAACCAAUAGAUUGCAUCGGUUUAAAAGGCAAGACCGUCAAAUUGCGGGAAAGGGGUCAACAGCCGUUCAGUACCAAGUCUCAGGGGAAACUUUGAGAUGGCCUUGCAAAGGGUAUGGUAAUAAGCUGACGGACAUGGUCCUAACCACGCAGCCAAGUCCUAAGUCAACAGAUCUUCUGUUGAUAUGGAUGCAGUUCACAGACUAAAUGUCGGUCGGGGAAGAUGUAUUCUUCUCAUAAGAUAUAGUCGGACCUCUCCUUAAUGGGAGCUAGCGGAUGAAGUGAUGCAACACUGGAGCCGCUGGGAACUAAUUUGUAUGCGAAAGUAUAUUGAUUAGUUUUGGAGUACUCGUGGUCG
Settings: 30 °C
self-splicing fitness (ln) values, listed per item
// response body must contain only the number

record_sequence=UGCAAGCAAUAUUACGAAGA value_reported=-1.99
record_sequence=GACUAGCAAUAUUACGAUAU value_reported=-0.566
record_sequence=CUUUAGCAAUAUUACGCGUA value_reported=-3.14
record_sequence=GGAAAGCAAUAUUACGUAUU value_reported=-1.25
record_sequence=CGUAAGCAAUAUUACGAUGA value_reported=-3.44

Value of self-splicing fitness (ln) reported for the sequence UAUUAGCAAUAUUACGGGAG is -3.18

Where do the numbers come from? From the supplement of paper PMC7877785.
